biological target: 3x2F ZGSL (artificial); test: EMSA; apparent Kd; details: label: 32P
Sequence (chain, as listed by the source): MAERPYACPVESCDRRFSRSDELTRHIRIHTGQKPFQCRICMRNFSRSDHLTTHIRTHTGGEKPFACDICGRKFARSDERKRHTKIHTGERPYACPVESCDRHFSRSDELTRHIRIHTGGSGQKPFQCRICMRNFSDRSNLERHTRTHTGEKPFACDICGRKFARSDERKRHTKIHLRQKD
propertyName: pKd
Convention used: pKd is expressed as -log10 of the molar concentration.

Req: Fill in: pKd of bsE (12//34//56) (dsDNA) DNA 1: GCGGAGTCGCGGCGTCTGGGCG DNA 2: CGCCCAGACGCCGCGACTCCGC is ___
Resp: 7.92

Req: Look at this binder and give its reported pKd. bsG (12/3456 in Table 5) (dsDNA) DNA 1: GCGGACGCGGCGTTGGGCG DNA 2: CGCCCAACGCCGCGTCCGC
Resp: 10.14

Req: # input binder: bsF (1234/56 in Table 5) (dsDNA) DNA 1: GCGGACTGCGGCGTGGGCG DNA 2: CGCCCACGCCGCAGTCCGC ; wanted: its pKd
Resp: 11.52

Req: Could you tell me which pKd is on file for bsD (12/34/56) (dsDNA) DNA 1: GCGGACTGCGGCGTTGGGCG DNA 2: CGCCCAACGCCGCAGTCCGC ?
Resp: 9.96
